The values you see were collected from patent US9187472B2.

- Measured on: NAMPT (human, recombinant, C-terminally His-tagged) (Homo sapiens)
- Sequence (P43490 whole entry): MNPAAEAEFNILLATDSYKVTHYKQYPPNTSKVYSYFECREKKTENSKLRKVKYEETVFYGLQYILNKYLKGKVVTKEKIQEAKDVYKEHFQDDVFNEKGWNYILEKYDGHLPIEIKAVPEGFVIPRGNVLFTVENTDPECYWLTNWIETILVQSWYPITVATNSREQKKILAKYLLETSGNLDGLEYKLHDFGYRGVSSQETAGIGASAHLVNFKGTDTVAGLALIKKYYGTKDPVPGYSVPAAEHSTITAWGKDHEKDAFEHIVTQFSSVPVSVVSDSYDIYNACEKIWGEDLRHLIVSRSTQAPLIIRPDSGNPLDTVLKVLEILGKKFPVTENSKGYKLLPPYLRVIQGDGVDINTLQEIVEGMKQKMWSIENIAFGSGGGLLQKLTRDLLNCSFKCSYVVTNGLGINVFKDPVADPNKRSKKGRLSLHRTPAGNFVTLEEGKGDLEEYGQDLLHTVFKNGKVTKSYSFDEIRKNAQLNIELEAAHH
- Measurement protocol: Time-Resolved Fluorescence Resonance Energy Transfer (TR-FRET) Binding Assay of NAMPT
- Measurement context: without substrates; 6.8 nM NAMPT, 200 nM probe, 3 hours equilibration
pIC50: −log10 of the molar value.
Given measured pIC50, output met if it is greater than or equal to 7 and not met if not.

## Input Does the compound CC(C)(C)OC(=O)N1CC(c2ccc(C(=O)NCc3ccn4ccnc4c3)cc2)C1 have recorded pIC50 that is 7 or more?
## Output met

## Input For O=C(NCc1ccc2nccn2c1)c1ccc(-c2cnn(CC3CCC3)c2)s1 then?
## Output met

## Input For O=C(NCc1ccc2nccn2c1)c1cnc(N(CC2CCOCC2)C(=O)C2CCOCC2)s1 then?
## Output not met

## Input For O=C(NCc1ccn2ccnc2c1)c1ccc(C2CCN(C(=O)CC3CCCC3)C2)cc1 (centres unmarked) then?
## Output not met

## Input For CC(C)CC(=O)N(Cc1ccc(C#N)cc1)c1ncc(C(=O)Nc2ccc3nccn3c2)s1 then?
## Output not met
